# Assay type: physicochemical
# run.parameters: DI water, 25° C., 0.5 mM; time 1 min
readout.type: Condition 2 Conversion (%)
// return the numeric value with its unit appended

{"columns": ["compound", "Condition 2 Conversion (%)"],
 "data": [
  ["COc1ccc([C@@]23CCC(=NNC(=O)CC(CC(=O)O)CC(C)C)C[C@@H]2N(C)CC3)cc1OC (stereo partly shown) [Compound 242]", "33.46%"],
  ["COc1ccc([C@@]23CC/C(=N\\NC(=O)C4(C(=O)O)CC4)C[C@@H]2N(C)CC3)cc1OC [Compound 243]", "0%"],
  ["COc1ccc([C@@]23CCC(=NOCc4ccccc4)C[C@@H]2N(C)CC3)cc1OC [Compound 208]", "0%"]
]}

Turning now to a further record.
Quote Condition 2 Conversion (%) reported for COc1ccc([C@@]23CCC(=NOC4CCCCO4)C[C@@H]2N(C)CC3)cc1OC (stereo partly shown) [Compound 206] please. 0%

----------
# Format: physicochemical
# run.parameters: DI water, 25° C., 0.5 mM; time 30 min
readout.type: Condition 2 Conversion (%)

Example results:
{"columns": ["compound", "Condition 2 Conversion (%)"],
 "data": [
  ["COc1ccc([C@@]23CC/C(=N\\NC(=O)Nc4ccc(N5CCN(C)CC5)cc4)C[C@@H]2N(C)CC3)cc1OC [Compound 257]", "5%"],
  ["COc1ccc([C@@]23CCC(OC(C)=O)=C[C@@H]2N(C)CC3)cc1OC [Compound 026]", "0%"],
  ["COc1ccc([C@@]23CC/C(=N/NC(=O)Nc4ccccc4Cl)C[C@@H]2N(C)CC3)cc1OC [Compound 270]", "0%"]
]}

Quote Condition 2 Conversion (%) reported for COc1ccc([C@@]23CCC(=NNC(=O)Nc4ccc(S(C)(=O)=O)cc4)C[C@@H]2N(C)CC3)cc1OC [Compound 255] please. 0%

Quote Condition 2 Conversion (%) reported for COc1ccc([C@@]23CCC(=NNc4ccc5ccccc5n4)C[C@@H]2N(C)CC3)cc1OC [Compound 366] please. 10.11%

Quote Condition 2 Conversion (%) reported for COc1ccc([C@@]23CCC(=NNC(=O)COc4ccccc4)C[C@@H]2N(C)CC3)cc1OC [Compound 223] please. 13.5%

Quote Condition 2 Conversion (%) reported for COc1ccc([C@@]23CC/C(=N\NC(=O)NC[C@H]4CC[C@H](C(=O)O)CC4)C[C@@H]2N(C)CC3)cc1OC [Compound 258] please. 0%

Quote Condition 2 Conversion (%) reported for COc1ccc([C@@]23CC/C(=N\OC(C)(C)OC)C[C@@H]2N(C)CC3)cc1OC [Compound 204] please. 0%

Quote Condition 2 Conversion (%) reported for COc1ccc([C@]23CCN(C)[C@H]2CC(OC)(OC)CC3)cc1OC (stereo in doubt) [Compound 190] please. 0%

Quote Condition 2 Conversion (%) reported for COc1ccc([C@@]23CC/C(=N\NC(=O)C4(C(=O)O)CC4)C[C@@H]2N(C)CC3)cc1OC [Compound 243] please. 0%

Quote Condition 2 Conversion (%) reported for COc1ccc([C@@]23CCC(=NNC(=O)C45CC6CC(CC(C6)C4)C5)C[C@@H]2N(C)CC3)cc1OC [Compound 271] please. 82%

Quote Condition 2 Conversion (%) reported for COc1ccc([C@@]23CCC(=NOCC(=O)OC(C)(C)C)C[C@@H]2N(C)CC3)cc1OC [Compound 202] please. 0%

Quote Condition 2 Conversion (%) reported for C=C(C)C(=O)OC1=C[C@@H]2N(C)CC[C@]2(c2ccc(OC)c(OC)c2)CC1 [Compound 315] please. 0%

Quote Condition 2 Conversion (%) reported for COc1ccc([C@@]23CCC(=NNC(=O)c4ccc(Cl)cc4)C[C@@H]2N(C)CC3)cc1OC [Compound 240] please. 40.5%

Quote Condition 2 Conversion (%) reported for COc1ccc([C@@]23CCC(=NNc4ncccc4C)C[C@@H]2N(C)CC3)cc1OC [Compound 364] please. 0%

Quote Condition 2 Conversion (%) reported for COc1ccc([C@@]23CCC(=NNC(=O)Nc4cccnc4)C[C@@H]2N(C)CC3)cc1OC [Compound 299] please. 0%

Quote Condition 2 Conversion (%) reported for COc1ccc([C@@]23CCC(OC(=O)c4ccccc4C)=C[C@@H]2N(C)CC3)cc1OC [Compound 298] please. 0%

Quote Condition 2 Conversion (%) reported for COc1ccc(NC(=O)NN=C2CC[C@@]3(c4ccc(OC)c(OC)c4)CCN(C)[C@H]3C2)cc1 [Compound 254] please. 0%
